- measuredTarget: DPAP1 (Plasmodium falciparum, UniProt Q8IIJ9)
- Sequence (Q8IIJ9 whole entry, looked up): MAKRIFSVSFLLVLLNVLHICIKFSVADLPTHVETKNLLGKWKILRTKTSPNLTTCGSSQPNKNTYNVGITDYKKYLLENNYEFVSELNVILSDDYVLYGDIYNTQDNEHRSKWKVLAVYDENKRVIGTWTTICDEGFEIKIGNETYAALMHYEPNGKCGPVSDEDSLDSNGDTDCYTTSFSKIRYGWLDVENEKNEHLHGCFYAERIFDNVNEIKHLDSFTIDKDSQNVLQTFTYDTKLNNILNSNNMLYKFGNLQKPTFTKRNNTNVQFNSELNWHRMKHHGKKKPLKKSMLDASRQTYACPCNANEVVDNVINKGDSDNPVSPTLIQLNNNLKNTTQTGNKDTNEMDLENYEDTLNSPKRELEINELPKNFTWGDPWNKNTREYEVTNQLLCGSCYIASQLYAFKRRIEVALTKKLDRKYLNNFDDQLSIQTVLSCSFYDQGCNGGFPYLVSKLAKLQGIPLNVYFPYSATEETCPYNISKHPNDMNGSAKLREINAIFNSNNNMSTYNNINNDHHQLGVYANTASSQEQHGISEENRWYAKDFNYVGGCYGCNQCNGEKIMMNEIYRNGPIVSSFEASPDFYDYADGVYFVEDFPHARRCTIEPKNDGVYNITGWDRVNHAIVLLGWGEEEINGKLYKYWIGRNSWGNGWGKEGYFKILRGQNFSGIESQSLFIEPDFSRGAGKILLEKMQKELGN
- method: primary screen, percent inhibition; higher = more effect of the substance;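 also: 30 min substrate incubation versus DMSO and 10 µM JCP410 controls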
- Design: species or system P. falciparum D10 trophozoite lysates; single well
About 230 (0.21%) of roughly 110,000 compounds showed an effect of 50% or more. Shown is part of a subset that was picked to be rich in strong results.
Each record here notes measured % Inhibition @ 10 uM.
Supply the numeric figure in %, leaving out any unit text.

Illustrative cases are given below, each with its answer.
CCCN(CCC)CCNC(=O)c1cn(C)c(=O)c2cc(OC)c(OC)cc12 : -2.49
CC(=O)c1ccc(OCCOc2ccc(C(C)=O)cc2)cc1 : -6.82
COCCNC(=O)c1noc2c1COc1ccc(C)cc1-2 : -3.77
CC(=O)ON1C(=O)C(c2ccccc2)=C(c2ccccc2)C1=O : 82
CCCN1CCC(N2CCC(C)CC2)CC1 : -3.74
Cc1ccc(C(C)C)c(OCC(O)CN2CC(C)OC(C)C2)c1 (stereo not drawn) : -1.15
Cc1cc(C)c2nc(N3CCCC(C(=O)N4CCCCCC4)C3)sc2c1 (stereo not drawn) : 1.8
CCOC(=O)c1c(C)nc(S)c(C#N)c1-c1ccccc1 : 57.1

Reported % Inhibition @ 10 uM ( COc1cc(CN2CCN(c3cccc(C)c3C)CC2)cc(OC)c1 ) = 55.4

Short answer for Cc1ccc(O)c(/C=N/c2c(C)nn(C)c2C)c1 : % Inhibition @ 10 uM was 7.26

The recorded % Inhibition @ 10 uM for entry COCCNC(=O)c1noc2c1COc1ccccc1-2 equals 60

Sure, the documented % Inhibition @ 10 uM for N=C(Cc1cccc2ccccc12)NOC(=O)c1cccs1 is 3.66

Value of % Inhibition @ 10 uM reported for the compound CCOC(=O)c1cc(C)n(CC2CCC(C(=O)Nc3cccc(C)n3)CC2)c1C (stereo not drawn) is -0.943

Measured % Inhibition @ 10 uM, CN1CCN(C(=O)c2ccc(Cn3c(SCc4ccccc4F)nc4ccncc43)cc2)CC1 : -1.92

// recorded % Inhibition @ 10 uM for COc1ccc(C2CC(=O)N3CN(CCCc4ccccc4)CSC3=C2C#N)cc1OC (stereo not drawn) : 30.5

Measured % Inhibition @ 10 uM, COc1ccc2cc3cc(C(=O)NCCN4CCN(Cc5ccccc5)CC4)sc3nc2c1 : 94.4

Entry CCOc1ccc(-c2cc(NC(=O)c3noc4c3COc3ccccc3-4)on2)cc1OCC — recorded % Inhibition @ 10 uM = -1.72

Note to self: % Inhibition @ 10 uM recorded for CC(=O)c1c(C)nc(S)c(C#N)c1-c1ccc(Cl)cc1 was 33.7

Entry Cc1cc(Cl)ccc1N(CC(=O)Nc1ccc2c(c1)OCO2)S(=O)(=O)c1ccccc1 — recorded % Inhibition @ 10 uM = 8.03

% Inhibition @ 10 uM reported for this compound CCCCN(CC)C(=O)c1noc2c1COc1ccccc1-2 : -1.72

Reported % Inhibition @ 10 uM of O=C(NCCc1c[nH]c2ccccc12)c1noc2c1COc1ccccc1-2 : 91.5

Reported % Inhibition @ 10 uM for COCCCNC(=O)c1noc2c1COc1ccc(C)cc1-2 was 5.1

---

- measuredTarget: DPAP1 (Plasmodium falciparum)
- method: primary screen, percent inhibition; higher = more effect of the substance
- Design: species or system P. falciparum D10 trophozoite lysates; single well
The whole screen tested about 110,000 compounds, of which about 230 (0.21%) showed an effect of 50% or more. Many of the other results were omitted from the sample, so strong results are more common in it than they were.
metricName: % Inhibition @ 10 uM (%)
Dear colleague, please return just the value in %, with no unit written.

COCCN1C(=O)/C(=C/c2cccc(C)c2)S/C1=N\c1ccccc1 : 64.4
CSC1=C(C#N)C(C)C2=C(O)CC(C)(C)CC2=N1 (stereo not shown) : 2.76
CC(=O)Nc1sc2c(c1C(N)=O)CCCCCC2 : 2.65

Measured % Inhibition @ 10 uM, O=S(=O)(c1ccccc1)N1CCN(c2ccccc2)CC1 : 5.09

Recorded % Inhibition @ 10 uM (compound Oc1c2nc(S)nc-2cnn1-c1ccccc1 ): 87.4

For NC(=O)c1c(NC(=O)C2CCC2)sc2c1CCCCC2 the compound record lists % Inhibition @ 10 uM as 7.35

---

// values below are reported % Inhibition @ 10 uM
- measuredTarget: DPAP1 (Plasmodium falciparum, UniProt Q8IIJ9)
- method: primary screen, percent inhibition; higher = more effect of the substance;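 also: 30 min substrate incubation versus DMSO and 10 µM JCP410 controls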
- Design: species or system P. falciparum D10 trophozoite lysates; single well
The whole screen tested about 110,000 compounds, of which about 230 (0.21%) showed an effect of 50% or more. Shown is part of a subset that was picked to be rich in strong results.
Give your result in % as a bare value.

CCn1c(C)cc(/C=C2/NC(=O)N(c3ccccc3)C2=O)c1C : -2.19
O=S(=O)(NC1CCc2ccccc21)c1ccc(-n2cnnn2)cc1 (centres unmarked) : -1.07
CCC1CCc2nc(S)c(C#N)c(C(F)(F)F)c2C1 (centres unmarked) : 88.2
COCCCNC(=O)c1cnn2c(C(F)(F)F)cc(-c3cccs3)nc12 : -2.26
Cc1ccc(N2C(=O)C3C4c5ccccc5C(C(C)O)(c5ccccc54)C3C2=O)cc1 (centres unmarked) : 53.4
COc1ccc(S(=O)(=O)Nc2cccc(C(C)=O)c2)cc1 : -1.92
CCCc1nc(N)c(C#N)c(-c2ccccc2)c1CC : -0.631

Okay, now this compound:
Quick note, % Inhibition @ 10 uM for COc1ccc(-n2c(=S)[nH]c3sc4c(c3c2=O)CCCCC4)cc1 landed at 12.4

---

- measuredTarget: DPAP1 (Plasmodium falciparum, UniProt Q8IIJ9)
- method: primary screen, percent inhibition; higher = more effect of the substance;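 also: 30 min substrate incubation versus DMSO and 10 µM JCP410 controls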
- Set-up: species or system P. falciparum D10 trophozoite lysates; single well
The whole screen tested about 110,000 compounds, of which about 230 (0.21%) showed an effect of 50% or more. The entries come from a sample that favours strong results as a whole.
metricName: % Inhibition @ 10 uM (%)
Please give a number only; it is taken to be in %.

For orientation, consider the following solved cases.
COc1ccc(CN2CSC3=C(C#N)C(c4cccs4)CC(=O)N3C2)cc1 (centres unmarked) : 50.8
COc1cccc(C2CC(=O)N3CN(Cc4ccco4)CSC3=C2C#N)c1OC (centres unmarked) : 18.7

# compound Cc1ccc2nc3c(O)n(C)cnc-3c2c1 ; its % Inhibition @ 10 uM = 5.06

O=C(CC1SC(=O)N(Cc2cccc3ccccc23)C1=O)Nc1nccs1 (centres unmarked) yielded % Inhibition @ 10 uM of -2.82

For S=c1[nH]c(=S)c2c3c(sc2[nH]1)CCC3 the compound record lists % Inhibition @ 10 uM as 85.2

---

- measuredTarget: DPAP1 (Plasmodium falciparum)
- method: primary screen, percent inhibition; higher = more effect of the substance
- Set-up: species or system P. falciparum D10 trophozoite lysates; single well
The whole screen tested about 110,000 compounds, of which about 230 (0.21%) showed an effect of 50% or more. What follows is part of a selection rich in strong results, with near analogues and random picks from the rest.
% Inhibition @ 10 uM overview
Enter your answer as a number in %; do not include the unit.

// below: answered molecules
CC(C)OCCCNC(=O)c1noc2c1COc1ccccc1-2 : 58.6
CC(C)CCNc1c(-c2cccc(Cl)c2)[nH]c2c(C#N)cnn12 : -4.71
Cc1ccc2c(c1)-c1onc(C(=O)NCCCOC(C)C)c1CO2 : 1.97
Cc1cc(/C=C2/C(=N)N3C(=NC2=O)SN=C3S(=O)(=O)C(C)C)c(C)n1Cc1ccccc1 : -7.21
COc1ccc2nc3sc(C(=O)NCCC(C)C)cc3cc2c1 : -5.98

Looking up COc1ccc2nc3sc(C(=O)N4CCOCC4)cc3cc2c1 , I see its % Inhibition @ 10 uM listed as 89.7

Lab book: % Inhibition @ 10 uM of CCn1ncc(Br)c1C(=O)Nc1ccc(S(=O)(=O)Nc2ccc(OC)cc2)cc1 noted as -4.43

Per the record, C[C@H](NC(=O)CCc1ccccc1)c1ccccc1 has % Inhibition @ 10 uM of 4.22

---

Overview of reported % Inhibition @ 10 uM across a group of molecules:
- measuredTarget: DPAP1 (Plasmodium falciparum, UniProt Q8IIJ9)
- method: primary screen, percent inhibition; read by cleavage of a fluorogenic dipeptide substrate; higher = more effect of the substance
- Design: species or system P. falciparum D10 trophozoite lysates; single well
About 230 (0.21%) of roughly 110,000 compounds showed an effect of 50% or more. The list comes from a sample in which strong results are over-represented; it also holds close analogues and randomly drawn compounds.
The reply should be a number in %, with the unit left off.

Field: example entries. Status: answers known.
O=C(CC1(O)C(=O)Nc2ccc(Br)cc21)c1ccc2ccccc2c1 (stereo not shown) : 4.03
Cc1nc2c(=O)oc3ccccc3c2n1C : 4.35
Cn1cc(Br)c(C(=O)Nc2sc3c(c2C(N)=O)CCCCC3)n1 : 51.9
Cn1c(=O)c2nc(-c3ccccc3)c(-c3ccccc3)nc2n(C)c1=O : 4.03
COCCN1C(=O)/C(=C/c2ccc(C)cc2)S/C1=N\c1ccccc1 : -11.1

Field % Inhibition @ 10 uM (entry O=C(CCC1CCCCC1)NC1(C(F)(F)F)NC(=O)N(Cc2ccccc2)C1=O (stereo not shown) ) reads -3.33

Please fill in: % Inhibition @ 10 uM reported for Cn1cc(Br)c(C(=O)Nc2sc3c(c2C(N)=O)CCC3)n1 = 1.02

Sure, the documented % Inhibition @ 10 uM for CC(C)(C)c1ccc(C(=O)NCc2cccc3ccccc23)cc1 is -3.48

% Inhibition @ 10 uM in this record for O=C(COc1ccccc1)NC(Cc1c[nH]c2ccccc12)C(=O)O (stereo not shown) : 10.2

Lookup result for COCCNC(=O)CSc1[nH]c(-c2cccc(OC)c2)nc1-c1ccccc1 ; measured % Inhibition @ 10 uM: 0.163
